Provenance of the data: paper PMC7252619

- TARGET: NEK2 (Homo sapiens)
- Construct: purchased ReactionBiology
- Sequence (P51955 whole entry): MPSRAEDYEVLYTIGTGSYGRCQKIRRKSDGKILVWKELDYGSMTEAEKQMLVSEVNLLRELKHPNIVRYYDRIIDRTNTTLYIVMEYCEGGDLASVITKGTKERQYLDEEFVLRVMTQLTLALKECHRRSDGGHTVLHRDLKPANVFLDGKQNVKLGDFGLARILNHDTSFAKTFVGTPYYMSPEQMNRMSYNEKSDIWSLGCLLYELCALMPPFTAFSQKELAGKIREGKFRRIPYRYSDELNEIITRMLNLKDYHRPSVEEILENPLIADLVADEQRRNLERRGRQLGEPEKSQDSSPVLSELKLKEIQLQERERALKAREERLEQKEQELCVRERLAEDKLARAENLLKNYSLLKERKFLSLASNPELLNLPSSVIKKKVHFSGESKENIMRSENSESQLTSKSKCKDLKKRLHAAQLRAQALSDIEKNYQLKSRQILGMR
- PROTOCOL DETAILS: Kinase activity test (ReactionBiology), % enzyme activity relative to DMSO;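 as to % Enzyme Activity (relative to DMSO controls), Average: FDA-approved drugs chosen by structure-based repositioning, each screened at 10 or 1 µM for kinase activity, expressed as percent of DMSO controls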
- Type: biochemical
- ASSAY CONDITIONS: NEK2; 10 uM; Average; read-out: % Enzyme Activity (relative to DMSO controls), Average
Quick reference for remaining activity at 10 µM among some molecules

MOLECULE	UNIT TEXT	remaining activity at 10 µM
Cc1cccc(C)c1OCC(=O)N[C@@H](Cc1ccccc1)[C@@H](O)C[C@H](Cc1ccccc1)NC(=O)[C@H](C(C)C)N1CCCNC1=O [Lopinavir, reference compound]	%	88.7
Cc1nc(Nc2ncc(C(=O)Nc3c(C)cccc3Cl)s2)cc(N2CCN(CCO)CC2)n1 [Dasatinib, reference compound]	%	19
N[C@@H](Cc1cc(I)c(Oc2cc(I)c(O)c(I)c2)c(I)c1)C(=O)O [Thyroxine, reference compound]	%	48.1
O=C(O)c1ccccc1O [Salicylic acid]	%	102
NC[C@H]1CC[C@H](C(=O)O)CC1 [Tranexamic acid]	%	85.3
Nc1ncnc2c1ncn2[C@@H]1O[C@H](CO)[C@@H](O)[C@H]1O [Adenosine, reference compound]	%	71.7
N[C@@H](CC(=O)N1CCn2c(nnc2C(F)(F)F)C1)Cc1cc(F)c(F)cc1F [Sitagliptin]	%	86.5
C[C@]12CC[C@@H]3c4ccc(O)cc4CC[C@H]3[C@@H]1CC[C@@H]2O [Estradiol, reference compound]	%	89
NC(=O)c1cccnc1 [Niacinamide, reference compound]	%	76.4
CC/C(=C(/CC)c1ccc(O)cc1)c1ccc(O)cc1 [Diethylstilbestrol, reference compound]	%	50.7
Nc1ccc2cc3ccc(N)cc3nc2c1 [Proflavine, reference compound]	%	51.6
CN1CCN(CCCN2c3ccccc3Sc3ccc(Cl)cc32)CC1 [Prochlorperazine, reference compound]	%	68.7

---

- TARGET: UniProtKB P35968
- Sequence (P35968 20-1356): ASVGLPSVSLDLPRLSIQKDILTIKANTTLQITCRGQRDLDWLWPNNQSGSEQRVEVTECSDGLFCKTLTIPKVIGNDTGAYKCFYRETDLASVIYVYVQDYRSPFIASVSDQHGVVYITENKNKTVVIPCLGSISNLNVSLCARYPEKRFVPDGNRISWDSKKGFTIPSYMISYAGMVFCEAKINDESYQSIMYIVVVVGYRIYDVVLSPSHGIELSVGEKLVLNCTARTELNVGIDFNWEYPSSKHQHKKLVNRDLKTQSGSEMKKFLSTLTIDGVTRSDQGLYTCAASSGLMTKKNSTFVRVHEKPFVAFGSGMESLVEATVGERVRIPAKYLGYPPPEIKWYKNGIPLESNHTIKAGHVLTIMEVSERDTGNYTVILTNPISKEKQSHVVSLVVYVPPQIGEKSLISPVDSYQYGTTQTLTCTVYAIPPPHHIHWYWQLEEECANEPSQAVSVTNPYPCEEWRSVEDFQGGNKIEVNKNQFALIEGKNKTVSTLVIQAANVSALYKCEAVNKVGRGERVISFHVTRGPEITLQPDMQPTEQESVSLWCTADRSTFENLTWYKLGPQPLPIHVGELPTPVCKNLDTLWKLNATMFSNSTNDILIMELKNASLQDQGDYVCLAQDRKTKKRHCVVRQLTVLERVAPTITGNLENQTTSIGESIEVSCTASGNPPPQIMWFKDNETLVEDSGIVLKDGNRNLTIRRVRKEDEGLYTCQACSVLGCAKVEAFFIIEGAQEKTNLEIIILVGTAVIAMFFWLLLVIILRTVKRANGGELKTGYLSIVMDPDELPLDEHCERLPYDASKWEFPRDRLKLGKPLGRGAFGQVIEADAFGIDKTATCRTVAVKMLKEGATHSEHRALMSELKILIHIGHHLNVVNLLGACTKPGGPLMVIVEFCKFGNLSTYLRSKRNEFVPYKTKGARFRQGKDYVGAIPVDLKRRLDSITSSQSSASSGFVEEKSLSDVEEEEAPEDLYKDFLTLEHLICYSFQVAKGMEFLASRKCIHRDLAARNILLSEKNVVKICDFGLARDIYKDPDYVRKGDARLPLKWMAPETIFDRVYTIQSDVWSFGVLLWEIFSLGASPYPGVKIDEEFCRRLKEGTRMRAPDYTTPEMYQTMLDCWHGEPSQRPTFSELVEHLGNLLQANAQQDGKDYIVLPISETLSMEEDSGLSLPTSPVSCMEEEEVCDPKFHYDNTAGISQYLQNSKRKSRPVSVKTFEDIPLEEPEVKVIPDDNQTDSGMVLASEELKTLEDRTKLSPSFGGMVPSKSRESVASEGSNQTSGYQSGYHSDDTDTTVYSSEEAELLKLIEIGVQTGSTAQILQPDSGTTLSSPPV
- PROTOCOL DETAILS: Kinase activity test (ReactionBiology), % enzyme activity relative to DMSO;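 as to % Enzyme Activity (relative to DMSO controls), Data 2: VEGFR2 was one member of a ten-kinase screening panel testing marketed FDA-approved drugs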
- Type: biochemical
- Set-up: purchased ReactionBiology
- ASSAY CONDITIONS: VEGFR2; 10 uM; replicate Data 2
MEASURED PROPERTY: % Enzyme Activity (relative to DMSO controls), Data 2

> print(dat)
                                    compound   result
 1  CC(=O)[C@]1(O)Cc2c(O)c3c(c(O)c2[C@@H](O[C@H]2C[C@H](N)[C@H](O)[C@H](C)O2)C1)C(=O)c1ccccc1C3=O  107.43%
 2  CC1(C)S[C@@H]2[C@H](NC(=O)[C@H](N)c3ccccc3)C(=O)N2[C@H]1C(=O)O   96.91%
 3  C[C@]12CC[C@@H]3c4ccc(O)cc4CC[C@H]3[C@@H]1CCC2=O  104.29%
 4     CCCCC1C(=O)N(c2ccccc2)N(c2ccccc2)C1=O  105.96%
 5  COc1cc2c(c(OC)c1OC)-c1ccc(OC)c(=O)cc1[C@@H](NC(C)=O)CC2  105.23%
 6  CC(C)(Oc1ccc(CCNC(=O)c2ccc(Cl)cc2)cc1)C(=O)O [Bezafibrate]  106.89%
 7   N=C(N)c1ccc(OCCCCCOc2ccc(C(=N)N)cc2)cc1   93.27%
 8  CN1CC(=O)N2[C@H](c3ccc4c(c3)OCO4)c3[nH]c4ccccc4c3C[C@@H]2C1=O   96.97%
 9  CN1[C@@H]2CC[C@H]1C[C@@H](OC(=O)c1c[nH]c3ccccc13)C2   93.19%
10          CN(C)CCCN1c2ccccc2Sc2ccc(Cl)cc21   106.1%
11  Cn1c(=O)cc(N2CCC[C@@H](N)C2)n(Cc2ccccc2C#N)c1=O  102.16%
12             CCc1nc(N)nc(N)c1-c1ccc(Cl)cc1   99.13%
13  CN[C@H]1CC[C@@H](c2ccc(Cl)c(Cl)c2)c2ccccc21  104.52%
14  COc1ccc2c(c1)c(CC(=O)O)c(C)n2C(=O)c1ccc(Cl)cc1   98.78%
15  C[C@]12CCC(=O)C=C1CC[C@@H]1[C@@H]2[C@@H](O)C[C@@]2(C)[C@H]1CC[C@]2(O)C(=O)CO [Hydrocortisone]  104.92%
16               Oc1ccc(O)cc1 [Hydroquinone]  108.57%
17  Cc1nc(=O)c2cc(CN(C)c3ccc(C(=O)N[C@@H](CCC(=O)O)C(=O)O)s3)ccc2[nH]1  106.17%
18                   O=c1[nH]cc(F)c(=O)[nH]1  102.36%
